Attribute: growth inhibition
Assay: NCI Yeast Anticancer Drug Screen. Data for the sgs1 mgt1 strain (AID 161);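 further: 0% = growth of cultures given vehicle only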
Details: S. cerevisiae sgs1 mgt1 strain, at 50.0 µM, stronger effect = higher value
The panel holds about 79,000 compounds, 15% with a hit somewhere; the sample as a whole holds those more often. Where a SMILES comes first, the peptide text is derived from it. The star is where a group is joined. Cbz = O=C(OCc1ccccc1)*
Your answer is read as %, so omit the unit and give the number.

Illustrative cases are given below, each with its answer.
CCOC(=O)c1c[nH]c2ccc(-c3ccccc3)cc2c1=O ... 4.6
CCCCCCCCCCCCCCCCCCc1c(C)cc(C)cc1C ... 3.7
CCCC(=O)OCc1ccc(Cl)c(Cl)c1 ... 9.45

Prompt: Look up growth inhibition: CC(NC(=O)OCc1ccccc1)C(=O)NC(CO)C(N)=O (stereo not drawn) (Cbz-Ala-Ser-NH2; configuration not given here)
Response: -0.25

Prompt: Report growth inhibition for Cc1cc(C)nc(NS(=O)(=O)c2ccc(NC(=O)c3ccncc3)cc2)n1 please.
Response: 3.05
